Experiment: Pharmacokinetics of oral administration in rats (plasma)
Format: in vivo
Conditions: plasma; rat, oral (P.O.), 20 mg/kg
Measurement kind: AUC(0-inf) (ng·h/mL)
Numbers only, in ng·h/mL.

Can you look up the measured AUC(0-inf) of CC1(C)C[C@H]2C3=CC[C@@H]4[C@@]5(C)CC[C@H](O)[C@](C)(CO)[C@@H]5CC[C@@]4(C)[C@]3(C)CC[C@@]2(C)[C@H](O)[C@@H]1O [Soyasapogenol A] for me?
95500

----------
Experiment: Pharmacokinetics of oral administration in rats (plasma)
Format: in vivo
Conditions: plasma; rat, oral (P.O.), 10 mg/kg; read-out: CLz/F (clearance) (converted)
Measurement kind: CL/F
Please give the number followed by its unit.

Can you look up the measured CL/F of CC1(C)C[C@H]2C3=CC[C@@H]4[C@@]5(C)CC[C@H](O)[C@](C)(CO)[C@@H]5CC[C@@]4(C)[C@]3(C)CC[C@@]2(C)[C@H](O)[C@@H]1O for me?
6.57 mL/min/kg
